# target under test: Hexokinase-4 (Rattus norvegicus)
# Sequence (P17712 whole entry): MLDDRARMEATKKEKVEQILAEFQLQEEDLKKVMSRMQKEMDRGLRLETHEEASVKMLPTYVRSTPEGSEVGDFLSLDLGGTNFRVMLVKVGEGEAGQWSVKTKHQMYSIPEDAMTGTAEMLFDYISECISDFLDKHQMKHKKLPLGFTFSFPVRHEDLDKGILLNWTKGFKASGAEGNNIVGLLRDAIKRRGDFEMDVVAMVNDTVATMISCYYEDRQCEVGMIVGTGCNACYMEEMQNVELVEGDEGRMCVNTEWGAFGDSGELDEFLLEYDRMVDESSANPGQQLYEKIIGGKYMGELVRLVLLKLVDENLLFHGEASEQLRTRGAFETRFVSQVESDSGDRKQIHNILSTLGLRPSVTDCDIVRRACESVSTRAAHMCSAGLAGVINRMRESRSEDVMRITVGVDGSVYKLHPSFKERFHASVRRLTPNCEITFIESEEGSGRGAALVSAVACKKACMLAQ
# test description: Effective concentration for glucokinase activation with 5 mM glucose
# Type: functional
observed property: pEC50
Answers are plain numbers, as −log10 of the molar value.

Solved cases (8 shown):
O=C(Nc1ncc(Cl)s1)N(CC1CCCC1)c1ccc(F)c(F)c1: 5.59
COc1ccc(N(CC2CCCC2)C(=O)NC2=NC(=O)CS2)cn1: 4.54
CS(=O)(=O)c1ccc(N(CC2CCCC2)C(=O)Nc2nccs2)cc1: 4.80
CS(=O)(=O)c1ccc(N(Cc2ccsc2)C(=O)Nc2ncc(Cl)s2)cc1: 5.17
CS(=O)(=O)c1ccc(N(CC2CCCO2)C(=O)Nc2ncc(Cl)s2)cc1 (stereo not drawn): 4.67
CS(=O)(=O)c1ccc(N(Cc2ccsc2)C(=O)Nc2ncc(Br)s2)cc1: 5.19
N#Cc1ccc(N(CC2CCCC2)C(=O)Nc2ncc(Cl)s2)cn1: 5.11
Cc1ccc(N(CC2CCCC2)C(=O)Nc2ncc(Cl)s2)cc1Cl: 6.40

Please supply pEC50 for each of the following items, keeping them in order.
1. COc1cccc(N(CC2CCCC2)C(=O)Nc2ncc(Cl)s2)c1
2. COc1ccc(N(CC2CCCC2)C(=O)Nc2nccs2)cn1
3. CS(=O)(=O)c1ccc(N(CC2CCOCC2)C(=O)Nc2ncc(Cl)s2)cc1

*A*
1: 5.85; 2: 4.72; 3: 5.31

Batch: pEC50 for all items listed.
1. CS(=O)(=O)c1ccc(C(CC2CCCC2)C(=O)Nc2nccs2)cc1 (stereo not drawn)
2. CC(=O)Nc1cccc(N(CC2CCCC2)C(=O)Nc2ncc(Cl)s2)c1

*A*
[5.66, 6.52]

I have 5 molecules here; please give me pEC50 for each one.
1. O=C(Nc1nccs1)N(CC1CCCC1)c1ccc(F)c(F)c1
2. CS(=O)(=O)c1ccc(N(CC2CCCC2)C(=O)Nc2nnc(C(F)(F)F)s2)cc1
3. CS(=O)(=O)c1ccc(N(CC2CCCC2)C(=O)Nc2nc3ccc(S(C)(=O)=O)cc3s2)cc1
4. NC(=O)c1cccc(N(CC2CCCC2)C(=O)Nc2ncc(Cl)s2)c1
5. NS(=O)(=O)c1ccc(N(CC2CCCC2)C(=O)Nc2ncc(Cl)s2)cc1

*A*
1: 4.79; 2: 4.47; 3: 4.48; 4: 6.00; 5: 5.74
